test system: NCI/ADR-RES ovarian; test: NCI tumour cell line growth inhibition, 48 h
assay.metric: TGI (µM)

- CC1OC(OC2C(O[C@H]3CC[C@@]4(C)C(=CC[C@H]5[C@@H]6C[C@@H]7O[C@]8(CC[C@@H](C)CO8)[C@@H](C)[C@@H]7[C@@]6(C)CC[C@@H]54)C3)OC(CO)C(O)C2O)C(O)C(O)C1O (stereo partly specified): 4.64
- CC1=C(C)CC2(C=C(C(C)(C)C)C(=O)C(C(C)(C)C)=C2)SC1: 39.4
- NC1(Cc2ccc(Cl)cc2)CCN(c2ncnc3[nH]ccc23)CC1: 26.5
- CC1(C)COC2=C(C1)C(=O)c1ccccc1C2=O: 1.94
